# target-entity: Rac GTPase-activating protein 1 (Homo sapiens)
# method-notes: blockers of MgcRacGAP-driven Rac1 GTP hydrolysis – biochemical, ADP Hunter fluorescence, primary and confirmatory, confirmation (AID 624330);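 note: fluorescence reports GDP produced by GAP-driven GTP hydrolysis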
# test-context: MgcRacGAP-stimulated Rac1 GTP hydrolysis, at 30 µM, stronger effect = higher value, GST-tagged Rac1 F28L mutant substrate
The campaign covered roughly 340,000 compounds. About 2,100 (0.62%) were called active. A selection follows. Potency and affinity values are given separately.
inhibition: recorded values

compound	inhibition, %
COc1ccc(OCc2nnc(SC3CCOC3=O)n2-c2ccccc2)cc1 (stereo not drawn)	11.2
COc1ccc(CN2CCN(C(C)C(=O)N3CCc4ccccc43)CC2)cc1OC (stereo not drawn)	7.8
COc1cc(CN2CCN(Cc3ccc([N+](=O)[O-])cc3)CC2)c([N+](=O)[O-])cc1OC	28.4
CN(C)CCNC(=O)c1onc(CSc2nc3ccccc3[nH]2)c1C(=O)NCCN(C)C	17.3
CC(OC(=O)/C=C/c1ccccc1)C(=O)Nc1ccc2c(c1)OCCO2 (stereo not drawn)	9.16
CC(=O)Nc1ccc(NC(=O)c2ccnn2C)cc1	3.95
CC(C)=CCCC(C)=CCN1C(=O)CN(C)C1=O	4.98
CCOc1ccc(CNC(=O)c2ccc3c(c2)N(CC)CCS3)cc1	14
COc1cc(OC)c(OC)cc1CN1CCN(Cc2cccc(F)c2)CC1	9.82
CCOC(=O)C1CCN(S(=O)(=O)c2ccc(Cl)cc2)CC1	4.24
O=C(Nc1ccc(N2CCOCC2)nc1)c1ccc(F)cc1	3.12
COc1ccc(CN2CCN(c3ncccn3)CC2)c(OC)c1	9.88
COc1ccc(CN2CCN(c3ccccc3OC)CC2)c(OC)c1	25.9
Cn1nccc1C(=O)Nc1ccc(Cl)cc1	-1.74
NC1=NC(=O)S/C1=C\c1ccc(F)cc1	-6.63
CCN=C1S/C(=C\c2cc(OCC)c(O)cc2Br)C(=O)N1CC	14.2
C1=CC2=NC34CCCCC3CC3=C(CCCC3)N4C2=CC1=NC1CCCCC1 (stereo not drawn)	11.1
Cc1ccc2nc(SCc3nnc(-c4ccccc4)o3)[nH]c2c1	12.2
CC(C(=O)N(C)Cc1cccc(F)c1)N1CCN(S(=O)(=O)c2ccc3c(c2)OCCCO3)CC1 (stereo not drawn)	4.74
CCOc1ccc(N2C(=O)S/C(=C\c3ccc(O)c(OCC)c3)C2=O)cc1	9.4
Cc1ccc(N=Cc2c(O)c3ccccc3oc2=O)c(C)c1	5.4
CC(C)(C)c1ccc(/C=C2\SC(=O)N=C2N)cc1	2.11
Cc1ccc(F)cc1N=Cc1c(O)c2ccccc2oc1=O	7.61

###

inhibition: recorded values
# target-entity: Rac GTPase-activating protein 1 (Homo sapiens) (UniProt Q9H0H5)
# Sequence (Q9H0H5 whole entry, looked up): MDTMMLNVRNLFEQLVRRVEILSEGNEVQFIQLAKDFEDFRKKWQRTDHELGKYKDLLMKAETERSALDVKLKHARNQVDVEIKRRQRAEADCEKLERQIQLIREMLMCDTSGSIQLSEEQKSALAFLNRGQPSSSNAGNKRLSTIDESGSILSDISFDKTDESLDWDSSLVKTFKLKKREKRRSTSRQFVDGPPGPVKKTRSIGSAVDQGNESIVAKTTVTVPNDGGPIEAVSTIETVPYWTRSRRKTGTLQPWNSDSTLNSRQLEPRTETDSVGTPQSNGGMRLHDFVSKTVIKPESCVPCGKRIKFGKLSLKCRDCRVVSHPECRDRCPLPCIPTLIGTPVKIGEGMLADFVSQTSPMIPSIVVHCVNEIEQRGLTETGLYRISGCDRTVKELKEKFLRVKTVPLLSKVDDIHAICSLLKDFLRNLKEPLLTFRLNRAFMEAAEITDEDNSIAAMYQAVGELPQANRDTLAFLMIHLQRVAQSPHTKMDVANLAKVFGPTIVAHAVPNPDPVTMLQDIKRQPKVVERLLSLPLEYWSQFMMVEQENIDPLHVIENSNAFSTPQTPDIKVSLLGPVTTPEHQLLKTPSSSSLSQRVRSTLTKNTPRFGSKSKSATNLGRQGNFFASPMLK
# method-notes: blockers of MgcRacGAP-driven Rac1 GTP hydrolysis – biochemical, ADP Hunter fluorescence, primary and confirmatory, confirmation (AID 624330);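 note: fluorescence reports GDP produced by GAP-driven GTP hydrolysis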
# test-context: MgcRacGAP-stimulated Rac1 GTP hydrolysis, at 30 µM, stronger effect = higher value, GST-tagged Rac1 F28L mutant substrate
In all, about 340,000 compounds went through this assay and about 2,100 (0.62%) were called active. These entries were drawn from the full list. Entries with a potency or affinity are not part of this list.
parameter-measured: inhibition

molecule	parameter-measured	reported-value
COc1ccc(/[N+]([O-])=C/c2ccco2)cc1	inhibition	9.73% (inactive)
O=C1c2cc(CO)cc(O)c2C(=O)c2c(O[C@@H]3OC(CO)[C@@H](O)[C@@H](O)[C@@H]3O)cccc21 (stereo not given in full)	inhibition	7.99% (inactive)
COc1ccc(NC(=S)NCCc2ccc(F)cc2)c(OC)c1	inhibition	5.59% (inactive)
C=CCN1C(=O)CSC1=Nc1cccc(O)c1	inhibition	3.76% (inactive)
Cc1cccc(OCC(=O)N2CCN(C(=O)COc3ccc(Cl)cc3)CC2)c1	inhibition	9.73% (inactive)
COCCNC(=O)C1CCCN(S(=O)(=O)c2c(C)noc2/C=C/c2cccs2)C1 (stereo not given)	inhibition	5.26% (inactive)
COc1ccc(N=C2SCC(=O)N2c2ccc(OC)cc2)cc1	inhibition	-0.28% (inactive)
C=CCN1C(=O)CSC1=Nc1ccc(C(=O)O)cc1	inhibition	6.53% (inactive)
Cn1c(SCC(=O)NNC(=O)c2ccc(Br)cc2)nnc1-c1cccnc1	inhibition	6.67% (inactive)
O=C1c2c(O)cccc2C(C2OC(CO)[C@@H](O)[C@H](O)[C@H]2O)c2cc(CO)cc(O)c21 (stereo not given in full)	inhibition	11.8% (inactive)
